System: SU-DHL-6
Test: Proliferation of lymphoma cell line in vitro, SU-DHL-6
Format: cell-based
Details: Homo sapiens, read-out: absolute IC50 (AbsIC50), proliferation
pIC50: −log10 of the molar value.
quantity-kind: pIC50

compound C[C@H](Nc1nc(N)nc(N)c1C#N)c1cc2ccc(F)cc2nc1-c1ccccn1 [p-toluenesulfonate of Compound A] , pIC50 observed: > 7.00

* * *

Assay: Solubility in simulated gastrointestinal fluids (SGF, FeSSIF, FaSSIF) at 37° C.
Assay type: physicochemical
Details: FaSSIF, 37 °C, pH 6.52, fassif, thermodynamic from solid, FaSSIF (pH 6.52), 2 h
quantity-kind: solubility at 2 h
State the value, then name its unit.

molecule C[C@H](Nc1nc(N)nc(N)c1C#N)c1cc2ccc(F)cc2nc1-c1ccccn1 , solubility at 2 h observed: 320 µg/mL
